So I've got a bunch of compounds here, and I need their TGI values.
System: NCI-H23 lung
Assay: NCI tumour cell line growth inhibition, 48 h

The measured TGI that "Cc1ccc(NC(=O)SCCC(=O)O)cc1" showed for NCI-H23 lung is > 100 µM

The measured TGI that "C=CC(=O)N1C[C@H](COc2nc(Nc3cnn(C)c3)nc3[nH]cc(Cl)c23)[C@@H](OC)C1" showed for NCI-H23 lung is 18.9 µM

The measured TGI that "O=c1[nH]c2[nH]c(-c3ccc(Br)cc3)cc2c2ccccc12" showed for NCI-H23 lung is > 100 µM

The measured TGI that "COc1ccc(Nc2nc3c(N)cc(C(F)(F)F)cc3nc2-c2ccccc2)cc1OC" showed for NCI-H23 lung is > 100 µM

The measured TGI that CCOc1ccc2nc(NC(=O)C(=O)C(C#N)CC(C)(C)C=O)sc2c1 (stereo unspecified) showed for NCI-H23 lung is > 100 µM

The measured TGI that "CO/C(=N\N=Cc1ccccc1)c1ccncc1" showed for NCI-H23 lung is > 100 µM
